# Test system: Plasmodium falciparum
# measurement_notes: Antimalarial activity against chloroquine resistant Plasmodium falciparum K1 infected in RBCs incubated for 72 hrs by SYBRgreen dye based fluorometric assay
# Format: functional, organism-based
# reported_conditions: K1, 72 h
This section presents compounds with their documented IC50 values.

// known answers, use as guide
CC1=CSC2=NC(/C=C/c3ccc(Cl)cc3)=C(C(=O)/C=C/c3ccc(Cl)cc3)C(c3ccccc3)N12 (configuration not stated)
2.71 µg/mL
CC1=CSC2=NC(/C=C/c3ccc(OCc4ccccc4)cc3)=C(C(=O)/C=C/c3ccc(OCc4ccccc4)cc3)C(c3ccc(Cl)cc3)N12 (configuration not stated)
19.6 µg/mL
CC1=CSC2=NC(/C=C/c3cccc(Cl)c3)=C(C(=O)/C=C/c3cccc(Cl)c3)C(c3ccc(Cl)cc3)N12 (configuration not stated)
< 0.76 µg/mL
COc1ccc(C2C(C(=O)/C=C/c3cccs3)=C(/C=C/c3cccs3)N=C3SC=C(C)N32)cc1 (configuration not stated)
2.03 µg/mL
CC1=CSC2=NC(/C=C/c3ccccc3Cl)=C(C(=O)/C=C/c3ccccc3Cl)C(c3ccc(Cl)cc3)N12 (configuration not stated)
2.79 µg/mL

Request body: readout IC50, system Plasmodium falciparum, query CC1=CSC2=NC(/C=C/c3ccc(Cl)cc3)=C(C(=O)/C=C/c3ccc(Cl)cc3)C(c3ccc(Cl)cc3)N12 (configuration not stated) . Return the value.
0.6 µg/mL

IC50 of COc1ccc(/C=C/C(=O)C2=C(/C=C/c3ccc(OC)cc3)N=C3SC=C(C)N3C2c2cc(OC)c(OC)c(OC)c2)cc1 (configuration not stated) on Plasmodium falciparum?
0.71 µg/mL

----------
# measurement_notes: Cytotoxicity against african green monkey Vero C1008 cells incubated for 72 hrs by resazurin dye based fluorometric assay
# Format: cell-based
# reported_conditions: chlorocebus sabaeus
assay_endpoint: CC50 at 72 h (µg/mL)
# number only, unit µg/mL dropped from output

Please review the following examples before continuing.
COc1cc(/C=C\C2=C(C(=O)/C=C/c3cc(OC)c(OC)c(OC)c3)C(c3cc(OC)c(OC)c(OC)c3)N3C(C)=CSC3=N2)cc(OC)c1OC (stereo not given)
167
CC1=CSC2=NC(/C=C/c3ccc(Cl)cc3)=C(C(=O)/C=C/c3ccc(Cl)cc3)C(c3ccc(Cl)cc3)N12 (stereo not given)
309
COc1cc(/C=C/C(=O)C2=C(/C=C/c3cc(OC)c(OC)c(OC)c3)N=C3SC=C(C)N3C2c2ccccc2)cc(OC)c1OC (stereo not given)
260
COc1ccc(/C=C/C(=O)C2=C(/C=C/c3ccc(OC)cc3)N=C3SC=C(C)N3C2c2cc(OC)c(OC)c(OC)c2)cc1 (stereo not given)
348
CC1=CSC2=NC(/C=C/c3cccc(Cl)c3)=C(C(=O)/C=C/c3cccc(Cl)c3)C(c3ccc(Cl)cc3)N12 (stereo not given)
317

Look up CC50 at 72 h for this molecule: CC1=CSC2=NC(/C=C/c3ccc4c(c3)OCO4)=C(C(=O)/C=C/c3ccc4c(c3)OCO4)C(c3ccccc3)N12 (stereo not given)
497

----------
# Tested on: Human immunodeficiency virus
# measurement_notes: Inhibition of HIV reverse transcriptase activity at 10 ug/ml incubated at 37 degC for 1 hr by ELISA RT assay
Entries and their inhibition
Output spec: scalar in %, unitless text.

The cases that follow already have their inhibition on record.
COc1ccc(C2C(C(=O)/C=C/c3ccccc3)=C(/C=C/c3ccccc3)N=C3SC=C(C)N32)cc1 (stereo not drawn)
39.4
CC1=CSC2=NC(/C=C/c3cccc(Cl)c3)=C(C(=O)/C=C/c3cccc(Cl)c3)C(c3ccc(Cl)cc3)N12 (stereo not drawn)
13.2
CC1=CSC2=NC(/C=C/c3ccc(OCc4ccccc4)cc3)=C(C(=O)/C=C/c3ccc(OCc4ccccc4)cc3)C(c3ccc(Cl)cc3)N12 (stereo not drawn)
17.6

Any idea what inhibition was measured for CC1=CSC2=NC(/C=C/c3ccc(Br)cc3)=C(C(=O)/C=C/c3ccc(Br)cc3)C(c3ccccc3)N12 (stereo not drawn) ?
39.8

Sample CC1=CSC2=NC(/C=C/c3ccc(OCc4ccccc4)cc3)=C(C(=O)/C=C/c3ccc(OCc4ccccc4)cc3)C(c3ccccc3)N12 (stereo not drawn) — what was its inhibition?
47.7

----------
# Test system: Plasmodium falciparum
# measurement_notes: Antimalarial activity against chloroquine resistant Plasmodium falciparum K1 infected in RBCs incubated for 72 hrs by SYBRgreen dye based fluorometric assay
# Assay type: functional, organism-based
# reported_conditions: K1, 72 h
assay_endpoint: IC50 (µg/mL)
Response body: numeric value in µg/mL, unit text excluded.

CC1=CSC2=NC(/C=C/c3ccc(F)cc3)=C(C(=O)/C=C/c3ccc(F)cc3)C(c3ccccc3)N12 (centres undefined)
1.59

// switching to the query compound
# query: IC50 of entry COc1ccc(C2C(C(=O)/C=C/c3ccc(F)cc3)=C(/C=C/c3ccc(F)cc3)N=C3SC=C(C)N32)cc1 (centres undefined)
1.09

----------
# System: Human immunodeficiency virus
# measurement_notes: Inhibition of HIV reverse transcriptase activity at 100 ug/ml incubated at 37 degC for 1 hr by ELISA RT assay
inhibition: recorded values

Some compounds with recorded inhibition:
CC1=CSC2=NC(/C=C/c3cccc(Cl)c3)=C(C(=O)/C=C/c3cccc(Cl)c3)C(c3ccccc3)N12 (stereo not given)
54.5%
COc1ccc(C2C(C(=O)/C=C/c3ccc4c(c3)OCO4)=C(/C=C/c3ccc4c(c3)OCO4)N=C3SC=C(C)N32)cc1 (stereo not given)
70.8%
CC1=CSC2=NC(/C=C/c3ccc(Br)cc3)=C(C(=O)/C=C/c3ccc(Br)cc3)C(c3ccc(Cl)cc3)N12 (stereo not given)
26.5%
CC1=CSC2=NC(/C=C/c3ccc(OCc4ccccc4)cc3)=C(C(=O)/C=C/c3ccc(OCc4ccccc4)cc3)C(c3ccccc3)N12 (stereo not given)
56.3%
CC1=CSC2=NC(/C=C/c3ccccc3Cl)=C(C(=O)/C=C/c3ccccc3Cl)C(c3ccccc3)N12 (stereo not given)
73.4%
CC1=CSC2=NC(/C=C/c3ccccc3)=C(C(=O)/C=C/c3ccccc3)C(c3ccccc3)N12 (stereo not given)
49.6%

Looking for the measured inhibition of COc1ccc(C2C(C(=O)/C=C/c3ccc(Cl)cc3)=C(/C=C/c3ccc(Cl)cc3)N=C3SC=C(C)N32)cc1 (stereo not given) , can you help?
50.9%

Consider the compound shown here: CC1=CSC2=NC(/C=C/c3ccc(OCc4ccccc4)cc3)=C(C(=O)/C=C/c3ccc(OCc4ccccc4)cc3)C(c3ccc(Cl)cc3)N12 (stereo not given) What is its recorded inhibition?
18.6%

Reported inhibition, compound CC1=CSC2=NC(/C=C/c3ccc(F)cc3)=C(C(=O)/C=C/c3ccc(F)cc3)C(c3ccccc3)N12 (stereo not given) : ____
59.2%

----------
The following compounds are shown together with reported Ratio CC50/IC50 values.
# measurement_notes: Selectivity index, ratio of CC50 for african green monkey Vero C1008 cells to IC50 for chloroquine sensitive Plasmodium falciparum 3D7
# Type: functional
Lab note: record the figure alone, no unit after it.

CC1=CSC2=NC(/C=C/c3ccc4c(c3)OCO4)=C(C(=O)/C=C/c3ccc4c(c3)OCO4)C(c3ccccc3)N12 (centres undefined)
97.97

Now, please, on to the next compound.
Field request: Ratio CC50/IC50 | item: COc1ccc(C2C(C(=O)/C=C/c3ccccc3)=C(/C=C/c3ccccc3)N=C3SC=C(C)N32)cc1 (centres undefined)
99.95

----------
# Tested on: Plasmodium falciparum
# measurement_notes: Antimalarial activity against chloroquine resistant Plasmodium falciparum K1 infected in RBCs incubated for 72 hrs by SYBRgreen dye based fluorometric assay
# Format: functional, organism-based
# reported_conditions: K1, 72 h
Quick reference for IC50 among some molecules
Return type: number; implicit unit µg/mL.

CC1=CSC2=NC(/C=C/c3ccccc3)=C(C(=O)/C=C/c3ccccc3)C(c3ccccc3)N12 (stereo not given)
0.79
CC1=CSC2=NC(/C=C/c3ccc(OCc4ccccc4)cc3)=C(C(=O)/C=C/c3ccc(OCc4ccccc4)cc3)C(c3ccccc3)N12 (stereo not given)
4.3
CC1=CSC2=NC(/C=C/c3ccccc3Cl)=C(C(=O)/C=C/c3ccccc3Cl)C(c3ccccc3)N12 (stereo not given)
0.36
COc1ccc(C2C(C(=O)/C=C/c3ccccc3)=C(/C=C/c3ccccc3)N=C3SC=C(C)N32)cc1 (stereo not given)
0.85

Which IC50 is reported for this molecule? COc1ccc(C2C(C(=O)/C=C/c3ccc4c(c3)OCO4)=C(/C=C/c3ccc4c(c3)OCO4)N=C3SC=C(C)N32)cc1 (stereo not given)
1.14

----------
# measurement_notes: Cytotoxicity against african green monkey Vero C1008 cells incubated for 72 hrs by resazurin dye based fluorometric assay
# Assay type: cell-based
# reported_conditions: chlorocebus sabaeus
Measured CC50 at 72 h values are reported for all entries that follow.

Use the examples below as a reference point.
CC1=CSC2=NC(/C=C/c3ccc(OCc4ccccc4)cc3)=C(C(=O)/C=C/c3ccc(OCc4ccccc4)cc3)C(c3ccc(Cl)cc3)N12 (centres undefined)
> 500 µg/mL
CC1=CSC2=NC(/C=C/c3ccc(OCc4ccccc4)cc3)=C(C(=O)/C=C/c3ccc(OCc4ccccc4)cc3)C(c3ccccc3)N12 (centres undefined)
> 500 µg/mL
CC1=CSC2=NC(/C=C/c3ccccc3Cl)=C(C(=O)/C=C/c3ccccc3Cl)C(c3ccc(Cl)cc3)N12 (centres undefined)
430 µg/mL
COc1ccc(C2C(C(=O)/C=C/c3ccc4c(c3)OCO4)=C(/C=C/c3ccc4c(c3)OCO4)N=C3SC=C(C)N32)cc1 (centres undefined)
418 µg/mL
CC1=CSC2=NC(/C=C/c3ccccc3)=C(C(=O)/C=C/c3ccccc3)C(c3ccccc3)N12 (centres undefined)
195 µg/mL

So what's the measured CC50 at 72 h for this one? CC1=CSC2=NC(/C=C/c3ccc(Br)cc3)=C(C(=O)/C=C/c3ccc(Br)cc3)C(c3ccccc3)N12 (centres undefined)
282 µg/mL

Any idea what CC50 at 72 h was measured for COc1ccc(C2C(C(=O)/C=C/c3ccc(F)cc3)=C(/C=C/c3ccc(F)cc3)N=C3SC=C(C)N32)cc1 (centres undefined) ?
261 µg/mL

Requested read-out: CC50 at 72 h. Entry: COc1ccc(C2C(C(=O)/C=C/c3ccc(Cl)cc3)=C(/C=C/c3ccc(Cl)cc3)N=C3SC=C(C)N32)cc1 (centres undefined)
273 µg/mL

# lookup: CC50 at 72 h of CC1=CSC2=NC(/C=C/c3ccccc3)=C(C(=O)/C=C/c3ccccc3)C(c3ccc(Cl)cc3)N12 (centres undefined)
320 µg/mL

Data credit: ChEMBL document CHEMBL2062476
